Test system: Salmonella typhimurium
Assay: Example 1: effect of pH buffering of acetic and propionic acid on antimicrobial activity in water
Format: cell-based
Conditions: Product Conc. 0.025 (% acid solution in water); 24 hr
Protocol: Propionic and acetic acids were buffered with ammonium hydroxide to pHs ranging from 1 to 7. Acid contents of the buffered solutions were determined by a weight to weight ratio calculation to obtain the same acid content in the test solutions. […] The pHs of the deionized water solutions were recorded and any problems with solubility noted. 100 ul of a nutrient broth culture of Salmonella typhimurium was added to each dilution tube. After addition, tubes were vortexed and allowed to stand. […]
experimental endpoint: Salmonella at time Interval 24 hr % reduction (%)
One number for each entry, in %.

Reference set, count: 5
> print(dat)
                                   molecule  measurement
1  CCC(=O)O [Propionic pH 3, Propionic acid]           84
2  CCC(=O)O [Propionic pH 2, Propionic acid]           94
3        CC(=O)O [Acetic pH 4, Acetic acid]           54
4  CCC(=O)O [Propionic pH 7, Propionic acid]            0
5  CCC(=O)O [Propionic pH 6, Propionic acid]            0

Task: Form field: reported Salmonella at time Interval 24 hr % reduction of CC(=O)O [Acetic pH 7, Acetic acid]
Output: 0
